Tested on: IL-1β release upon NLRP3 activation in peripheral blood mononuclear cells (PBMC)
Experiment: PBMC IC50 Determination Assay
Type: cell-based
Conditions: Homo sapiens; inhibition of IL-1β release; LPS-primed PBMC stimulated with ATP or nigericin
Experimental: The compounds of the present disclosure were tested for their inhibitory activity against IL-1β release upon NLRP3 activation in peripheral blood mononuclear cells (PBMC). […] The release of IL-1β into the media was determined by a quantitative detection of IL-1β in the media using an IL-1β enzyme-linked immunosorbent assay (ELISA) Ready-SET-Go!, eBioscience cat. […] The release of IL-1β into the media was determined by quantitative detection of IL-1β in the media using HTRF®, CisBio cat. […]
pIC50: −log10 of the molar value. Counter-ions that a name gives are not always drawn.
Below is a list of entries, each paired with its recorded pIC50 value.
Outcome Measure: pIC50

                                   molecule  outcome_measure  readout_value
0  Cc1cc(C(F)(F)F)cc(O)c1-c1ccc(CN2CCC(F)(F)C2)nn1            pIC50         > 6.30
1  Cc1cc(C(F)(F)F)cc(O)c1-c1ccc(CNC2(C)CCOC2)nn1 (centres unmarked) [Compound 6, hydrochloride]            pIC50   6.00 to 6.30
2  Cc1cc(C(F)(F)F)cc(O)c1-c1ccc(CNc2ncccn2)nn1            pIC50   5.52 to 6.00
3  Cc1cc(Cl)cc(O)c1-c1ccc(CN(C)[C@H]2CCOC2)nn1            pIC50   5.52 to 6.00
4  Cc1cc(NCc2ccc(-c3c(C)cc(C(F)(F)F)cc3O)nn2)sn1            pIC50   6.00 to 6.30

====

tested on: IL-1β release upon NLRP3 activation in peripheral blood mononuclear cells (PBMC); assay: PBMC IC50 Determination Assay; format: cell-based; details: Homo sapiens; inhibition of IL-1β release; LPS-primed PBMC stimulated with ATP or nigericin
Counter-ions that a name gives are not always drawn.
Outcome Measure: IC50

                                    molecule     readout_value
 0  CC(=O)N1CC[C@@H](NCc2ccc(-c3c(C)cc(Cl)cc3O)nn2)C1 [Compound 72]    500 to 1000 nM
 1  Cc1cc(C(F)(F)F)cc(O)c1-c1ccc(CNCc2ccn(C)n2)nn1 [Compound 127]    500 to 1000 nM
 2  CC(=O)N1CC[C@H](NCc2ccc(-c3c(C)cc(Cl)cc3O)nn2)C1 [Compound 73]          < 500 nM
 3  Cc1cc(C(F)(F)F)cc(O)c1-c1ccc(CNCC2CCCCO2)nn1 (stereo not drawn) [Compound 107]  3000 to 10000 nM
 4  Cc1cc(Cl)cc(O)c1-c1ccc(CNC2CCOCC2)nn1 [Compound 12]          < 500 nM
 5  CO[C@H]1CCN(Cc2ccc(-c3c(C)cc(Cl)cc3O)nn2)C1 [Compound 61]   1000 to 3000 nM
 6  Cc1cc(Cl)cc(O)c1-c1ccc(CN2CCCC2=O)nn1 [Compound 62]          < 500 nM
 7  Cc1cc(C(F)(F)F)cc(O)c1-c1ccc(Cn2ccc(=N)cn2)nn1 [Compound 121]        ≥ 10000 nM
 8  Cc1cc(C(F)(F)F)cc(O)c1-c1ccc(CN2CCOC2=O)nn1 [Compound 44]          < 500 nM
 9  Cc1cc(C(F)(F)F)cc(O)c1-c1ccc(CNC2CC3(C2)CS(=O)(=O)C3)nn1 [Compound 3]    500 to 1000 nM
10  Cc1cc(C(F)(F)F)cc(O)c1-c1ccc(CN2CC[C@H](F)C2)nn1 [Compound 35]    500 to 1000 nM
11  Cc1cc(C(F)(F)F)cc(O)c1-c1ccc(Cn2ccc(=N)cc2)nn1 [Compound 25]  3000 to 10000 nM
12  Cc1cc(C(F)(F)F)cc(O)c1-c1ccc(CNCC2CCOC2)nn1 (stereo not drawn) [Compound 105]   1000 to 3000 nM
13  COCC(=O)NCc1ccc(-c2c(C)cc(C(F)(F)F)cc2O)nn1 [Compound 8]   1000 to 3000 nM
14  Cc1cc(C(F)(F)F)cc(O)c1-c1ccc(CNC2CC3CCOC32)nn1 (stereo not drawn) [Compound 4]   1000 to 3000 nM
15  Cc1cc([N+](=O)[O-])cc(O)c1-c1ccc(CNC2CCOCC2)nn1 [Compound 57, hydrochloride]   1000 to 3000 nM
16  Cc1cc(C(F)(F)F)cc(O)c1-c1ccc(CNC2CCN(C)C2=O)nn1 (stereo not drawn) [Compound 113]    500 to 1000 nM
17  Cc1cc(C(F)(F)F)cc(O)c1-c1ccc(CN2CC[C@@H](F)C2)nn1 [Compound 34]   1000 to 3000 nM
18  Cc1cc(C(F)(F)F)cc(O)c1-c1ccc(CN[C@@H]2CCN(C)C(=O)C2)nn1 [Compound 37]    500 to 1000 nM
19  Cc1cc(C(F)(F)F)cc(O)c1-c1ccc(CNC(C)C)nn1 [Compound 99]          < 500 nM
20  Cc1cc(Cl)cc(O)c1-c1ccc(CN[C@H]2CCC(=O)N(C)C2)nn1 [Compound 87]          < 500 nM
21  Oc1cc(Cl)cc(Cl)c1-c1ccc(CNC2CCOCC2)nn1 [Compound 36]    500 to 1000 nM
22  Cc1cc(C(F)(F)F)cc(O)c1-c1ccc(CNc2cccnc2)nn1 [Compound 79]    500 to 1000 nM
23  Oc1cc(Cl)cc(F)c1-c1ccc(CNC2CCOCC2)nn1 [Compound 69, hydrochloride]  3000 to 10000 nM
24  Cc1cc(C(F)(F)F)cc(O)c1-c1ccc(CNCCN(C)C)nn1 [Compound 116]  3000 to 10000 nM
25  Cc1cc(C(F)(F)F)cc(O)c1-c1ccc(COC2CCCN(C)C2)nn1 (stereo not drawn) [Compound 41, hydrochloride]    500 to 1000 nM
26  Cc1cc(C(F)(F)F)cc(O)c1-c1ccc(CNc2c(C)noc2C)nn1 [Compound 51]    500 to 1000 nM
27  Cc1cc(C(F)(F)F)cc(O)c1-c1ccc(CNCc2cccs2)nn1 [Compound 141]          < 500 nM
28  Cc1cc(C(F)(F)F)cc(O)c1-c1ccc(C[n+]2cccc(N)c2)nn1 [Compound 145]  3000 to 10000 nM
29  Cc1cc(C(F)(F)F)cc(O)c1-c1ccc(CNC2CCS(=O)(=O)CC2)nn1 [Compound 137]   1000 to 3000 nM
30  Cc1cc(C(F)(F)F)cc(O)c1-c1ccc(CNc2cscn2)nn1 [Compound 28]    500 to 1000 nM
31  Cc1cc(C(F)(F)F)cc(O)c1-c1ccc(CNCc2ccnn2C)nn1 [Compound 126]   1000 to 3000 nM
32  Cc1cc(C(F)(F)F)cc(O)c1-c1ccc(CNC2CCOC2)nn1 (stereo not drawn) [Compound 103]          < 500 nM
33  Cc1cc(Cl)cc(O)c1-c1ccc(CN2CCCC2)nn1 [Compound 54]          < 500 nM
34  Cc1cc(C(F)(F)F)cc(O)c1-c1ccc(CNC2CC3(COC3)C2)nn1 [Compound 2]    500 to 1000 nM
35  Cc1cc(C(F)(F)F)cc(O)c1-c1ccc(CNCc2cnn(C)c2)nn1 [Compound 128]   1000 to 3000 nM
